Experiment: Acute oral toxicity in mice (LD50)
Type: in vivo, C57-WH mice
Details: mouse, in vivo, po; mice, p.o. in sesame oil
Description: The LD50 of β-MET administered orally in mice could not be accurately determined. However, five male and five female C57-WH mice, each weighing approximately 15 g, received 200 mg of β-MET, suspended in sesame oil, by p.o. intubation.
MEASUREMENT_LABEL: LD50

Exercise: Provide measured LD50 value, entry: C[C@H]1CC[C@@]2(C)[C@H](CC[C@@H]3[C@@H]2CC[C@]2(C)C(=O)CC[C@@H]32)C1
Key: > 10000 mg/kg

These data points were gathered from patent US4897390A.
